Provide the reported IC50 of each item.
# Experimental system: Acetylcholinesterase (Electrophorus electricus)
# Sequence (O42275 whole entry): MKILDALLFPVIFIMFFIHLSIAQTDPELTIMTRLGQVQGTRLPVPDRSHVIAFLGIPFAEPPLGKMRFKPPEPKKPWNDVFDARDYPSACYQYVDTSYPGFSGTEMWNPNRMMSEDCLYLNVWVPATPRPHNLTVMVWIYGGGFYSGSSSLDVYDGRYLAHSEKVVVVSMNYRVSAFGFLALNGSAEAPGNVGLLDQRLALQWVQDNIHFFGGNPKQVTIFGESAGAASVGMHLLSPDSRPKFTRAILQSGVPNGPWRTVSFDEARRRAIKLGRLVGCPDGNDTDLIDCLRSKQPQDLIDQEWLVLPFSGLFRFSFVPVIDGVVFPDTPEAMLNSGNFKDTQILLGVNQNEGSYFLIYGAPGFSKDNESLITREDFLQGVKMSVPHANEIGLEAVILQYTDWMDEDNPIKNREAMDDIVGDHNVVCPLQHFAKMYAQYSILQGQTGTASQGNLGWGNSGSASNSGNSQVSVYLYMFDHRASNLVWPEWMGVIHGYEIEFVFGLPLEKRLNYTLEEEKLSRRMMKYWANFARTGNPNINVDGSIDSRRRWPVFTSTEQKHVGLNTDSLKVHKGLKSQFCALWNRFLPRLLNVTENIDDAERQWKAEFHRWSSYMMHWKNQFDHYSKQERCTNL
Please respond with the number in nM and leave the unit unwritten.

Q: # query: IC50 of entry CCN(CCCCNc1c2c(nc3ccccc13)CCCC2)CC(=O)Nc1nc(-c2ccc(OC)cc2)cs1
Ans: 1660

Q: And what about the compound CCN(CCCNc1c2c(nc3ccccc13)CCCC2)CC(=O)Nc1nc(-c2ccc(OC)cc2)cs1 ?
Ans: 1380

Q: Next: O=C(CCC(=O)Nc1nc(-c2ccc(Cl)cc2)cs1)NCCCCNc1c2c(nc3ccccc13)CCCC2
Ans: 1350

Q: Could you do the same for CCN(CCCCNc1c2c(nc3ccccc13)CCCC2)CC(=O)Nc1nc(-c2ccccc2)cs1 , please?
Ans: 158

Q: How about this compound: CCN(CCCNc1c2c(nc3ccccc13)CCCC2)CCC(=O)Nc1nc(-c2ccccc2)cs1
Ans: 324

Q: Try this compound next: O=C(CCC(=O)Nc1nc(-c2ccccc2)cs1)NCCCCNc1c2c(nc3ccccc13)CCCC2
Ans: 490

Q: Would you kindly repeat that for O=C(CCCC(=O)Nc1nc(-c2ccccc2)cs1)NCCCNc1c2c(nc3ccccc13)CCCC2 ?
Ans: 380

Q: O=C(CCCC(=O)Nc1nc(-c2ccccc2)cs1)NCCCCNc1c2c(nc3ccccc13)CCCC2 ?
Ans: 282

Q: Now try CCN(CCCCNc1c2c(nc3ccccc13)CCCC2)CCC(=O)Nc1nc(-c2ccc(OC)cc2)cs1 .
Ans: 288

Q: Can you check CCN(CCCNc1c2c(nc3ccccc13)CCCC2)CC(=O)Nc1nc(-c2ccccc2)cs1 next?
Ans: 105

Entry source: ChEMBL document CHEMBL2157968
